# assay-text: Pharmacokinetic studies in Sprague Dawley rats
# Type: in vivo
# protocol-conditions: rat, plasma, sc, 20 mg/kg
experimental-readout: half-life (h)

P = Cc1cc(C)c(/C=C2\C(=O)Nc3ccccc32)[nH]1
Q = COc1cc2nccc(Oc3ccc(NC(=O)C4(C(=O)Nc5ccc(F)cc5)CC4)cc3)c2cc1OC [Cabozantinib, cabozantinib]
In: # query: argmin of half-life over P and Q # respond with the chosen item's label
Out: P

---

# study-target: bone morphogenic protein receptor type 2 (BMPR2) (Homo sapiens, UniProt Q13873)
# Sequence (Q13873 27-1038): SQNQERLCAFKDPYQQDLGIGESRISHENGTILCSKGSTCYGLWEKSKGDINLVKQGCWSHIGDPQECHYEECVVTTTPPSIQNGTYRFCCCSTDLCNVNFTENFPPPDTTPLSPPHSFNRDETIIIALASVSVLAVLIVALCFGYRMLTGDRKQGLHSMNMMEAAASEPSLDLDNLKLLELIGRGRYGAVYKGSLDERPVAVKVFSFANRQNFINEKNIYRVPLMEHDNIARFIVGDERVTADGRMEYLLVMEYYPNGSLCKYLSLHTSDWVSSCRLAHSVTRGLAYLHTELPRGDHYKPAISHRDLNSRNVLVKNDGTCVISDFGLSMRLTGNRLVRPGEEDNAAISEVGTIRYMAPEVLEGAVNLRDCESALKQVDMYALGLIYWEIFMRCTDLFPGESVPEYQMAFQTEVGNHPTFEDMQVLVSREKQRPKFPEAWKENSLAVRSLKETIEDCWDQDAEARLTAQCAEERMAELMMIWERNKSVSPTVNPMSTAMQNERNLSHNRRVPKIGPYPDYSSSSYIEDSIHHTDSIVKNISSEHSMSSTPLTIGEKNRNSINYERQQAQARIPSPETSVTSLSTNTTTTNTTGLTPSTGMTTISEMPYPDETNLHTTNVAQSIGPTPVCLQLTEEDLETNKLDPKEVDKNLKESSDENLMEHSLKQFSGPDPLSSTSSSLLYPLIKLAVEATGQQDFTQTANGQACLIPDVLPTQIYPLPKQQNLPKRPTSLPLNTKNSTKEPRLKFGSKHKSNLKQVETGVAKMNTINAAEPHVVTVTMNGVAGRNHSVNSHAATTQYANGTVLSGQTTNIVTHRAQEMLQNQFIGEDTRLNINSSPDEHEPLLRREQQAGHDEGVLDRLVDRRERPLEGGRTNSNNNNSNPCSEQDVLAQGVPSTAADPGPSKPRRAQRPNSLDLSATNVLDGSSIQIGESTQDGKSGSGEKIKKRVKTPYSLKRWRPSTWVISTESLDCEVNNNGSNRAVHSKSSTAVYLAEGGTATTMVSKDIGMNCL
experimental-readout: Kd

In: What does the record list as Kd for COc1cc2nccc(Oc3ccc(NC(=O)C4(C(=O)Nc5ccc(F)cc5)CC4)cc3)c2cc1OC [Cabozantinib, cabozantinib] ?
Out: > 10 µM

---

# assay-text: Pharmacokinetic studies in Sprague Dawley rats
# Format: in vivo
# protocol-conditions: rat, plasma, other: via an Alzet pump, 12 mg/kg
experimental-readout: AUC(0-t) (ng·h/mL)
Respond with the bare value in ng·h/mL.

In: # lookup: AUC(0-t) of COc1cc2nccc(Oc3ccc(NC(=O)C4(C(=O)Nc5ccc(F)cc5)CC4)cc3)c2cc1OC [Cabozantinib, cabozantinib]
Out: 16800

---

# assay-text: Pharmacokinetic studies in Sprague Dawley rats
# Assay type: in vivo
# protocol-conditions: rat, plasma, other: via an Alzet pump, 12 mg/kg
experimental-readout: Cmax (ng/mL)
// return numeric value only (unit: ng/mL, not printed)

In: Please look up its Cmax: COc1cc2nccc(Oc3ccc(NC(=O)C4(C(=O)Nc5ccc(F)cc5)CC4)cc3)c2cc1OC [Cabozantinib, cabozantinib]
Out: 238

The origin of these recorded values is paper PMC8202272.
